- study-system: Estrogen receptor (Homo sapiens) + Estrogen receptor beta (Homo sapiens) (UniProt P03372+Q92731)
- Sequence (P03372 whole entry, looked up): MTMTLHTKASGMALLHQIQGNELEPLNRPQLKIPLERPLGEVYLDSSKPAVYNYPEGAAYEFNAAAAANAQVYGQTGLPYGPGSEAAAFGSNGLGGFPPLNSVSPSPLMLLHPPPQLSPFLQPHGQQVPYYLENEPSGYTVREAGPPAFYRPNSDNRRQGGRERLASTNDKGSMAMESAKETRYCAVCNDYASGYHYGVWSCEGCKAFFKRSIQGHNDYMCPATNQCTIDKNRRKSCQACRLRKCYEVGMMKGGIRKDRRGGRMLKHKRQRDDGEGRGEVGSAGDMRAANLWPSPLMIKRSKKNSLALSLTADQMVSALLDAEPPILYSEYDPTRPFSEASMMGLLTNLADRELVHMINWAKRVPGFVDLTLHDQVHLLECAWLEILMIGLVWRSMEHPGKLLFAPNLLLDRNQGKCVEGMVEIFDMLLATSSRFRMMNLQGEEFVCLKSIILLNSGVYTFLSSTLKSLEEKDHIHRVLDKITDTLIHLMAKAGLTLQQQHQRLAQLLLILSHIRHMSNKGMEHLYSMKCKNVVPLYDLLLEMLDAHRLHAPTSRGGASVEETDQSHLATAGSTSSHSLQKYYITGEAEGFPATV
- Sequence (Q92731 whole entry, looked up): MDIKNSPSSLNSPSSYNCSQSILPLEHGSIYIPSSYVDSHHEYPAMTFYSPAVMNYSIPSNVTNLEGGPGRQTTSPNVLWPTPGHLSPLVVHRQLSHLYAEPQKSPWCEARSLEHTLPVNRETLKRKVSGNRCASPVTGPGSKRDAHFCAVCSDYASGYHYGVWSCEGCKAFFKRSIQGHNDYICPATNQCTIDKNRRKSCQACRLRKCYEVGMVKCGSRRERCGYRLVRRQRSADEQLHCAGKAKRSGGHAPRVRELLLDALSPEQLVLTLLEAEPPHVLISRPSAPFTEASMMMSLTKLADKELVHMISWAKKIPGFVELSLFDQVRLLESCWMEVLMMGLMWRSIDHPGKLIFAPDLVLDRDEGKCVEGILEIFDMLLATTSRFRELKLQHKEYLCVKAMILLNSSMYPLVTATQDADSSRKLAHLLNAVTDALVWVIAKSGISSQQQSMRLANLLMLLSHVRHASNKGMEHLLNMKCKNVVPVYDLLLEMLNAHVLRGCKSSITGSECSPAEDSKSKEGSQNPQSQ
- assay-text: OT_ER_ERaERb_0480: Odyssey Thera (OT) 8-hour HEK293T Protein-Complementation Assay for Estrogen Receptor-alpha/-beta Heterodimer (AID 2283352)
Results filed as inconclusive are left out. The source made the active and inactive calls. How the source made its calls: active means hit-call score of the fitted dose curve at least 0.9, where 1 is the maximum; inconclusive means response in the unintended direction; inactive means score below 0.9.
Log the outcome using a class from true (1) for active, false (0) for inactive

Exercise: # fetch the recorded call for CCCCCCCCCCCCCCCS(=O)(=O)Oc1ccccc1 here
Key: false (0)

Exercise: # fetch the recorded call for CCCCC(CC)COC(=O)CCCCC(=O)OCC(CC)CCCC (stereo not drawn) here
Key: false (0)

Exercise: # fetch the recorded call for C=C(C)C(=O)OCCC(F)(F)C(F)(F)C(F)(F)C(F)(F)C(F)(F)C(F)(F)F here
Key: false (0)

Exercise: # fetch the recorded call for Oc1cccc(O)c1 here
Key: false (0)

Exercise: # fetch the recorded call for CCCCC(CC)COC(=O)CCCCC(=O)OCc1ccccc1 (stereo not drawn) here
Key: false (0)

Exercise: # fetch the recorded call for CCCCCCCCC(=O)O here
Key: false (0)

Exercise: # fetch the recorded call for O=C(O)c1ccccc1C(c1ccc(O)cc1)c1ccc(O)cc1 here
Key: false (0)

Exercise: # fetch the recorded call for NC(=O)N(O)[C@@H]1C=C[C@H](Oc2cccc(Oc3ccc(F)cc3)c2)C1 here
Key: false (0)

Exercise: # fetch the recorded call for CC(=O)CC(C)(C)O here
Key: false (0)

Exercise: # fetch the recorded call for OCCC(F)(F)C(F)(F)C(F)(F)C(F)(F)C(F)(F)C(F)(F)F here
Key: false (0)

Exercise: # fetch the recorded call for CCCOC(=O)c1ccc(O)cc1 here
Key: true (1)

Exercise: # fetch the recorded call for CCCCCCCCOC(=O)CCCCCCCCC(=O)OCCCCCCCC here
Key: false (0)

Exercise: # fetch the recorded call for CC(C)(C)CC(C)(C)c1ccc(O)c(-n2nc3ccccc3n2)c1 here
Key: false (0)
